- Study target: T1, human MSLN-FL-his protein (human, UniProt Q13421 296-580)
- T1 construct: Made in HEK293E cells, purified on nickel column; also called hMSLN-FL-his; human MSLN full-length protein; not shown: His tag
- T1 sequence (Q13421 other isoform, or with tags, fused parts or gaps): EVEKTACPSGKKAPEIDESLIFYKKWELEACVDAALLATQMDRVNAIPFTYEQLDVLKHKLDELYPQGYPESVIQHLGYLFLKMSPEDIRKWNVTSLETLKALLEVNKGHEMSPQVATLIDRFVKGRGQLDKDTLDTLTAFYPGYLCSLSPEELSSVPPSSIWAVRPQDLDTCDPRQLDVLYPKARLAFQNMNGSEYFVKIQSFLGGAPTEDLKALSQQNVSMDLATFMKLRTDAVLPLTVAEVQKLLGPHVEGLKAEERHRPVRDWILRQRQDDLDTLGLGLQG
- Experiment description: ELISA, coated antigen, no antibody (blank)
Assay metric: OD450
Just the number, please.

Query: Please report the recorded OD450 for S009-F7.53.2 chimeric antibody (antibody, human IgG1, kappa, V domains shown, Human-murine chimeric antibody, human IgG1/kappa constant regions) VH: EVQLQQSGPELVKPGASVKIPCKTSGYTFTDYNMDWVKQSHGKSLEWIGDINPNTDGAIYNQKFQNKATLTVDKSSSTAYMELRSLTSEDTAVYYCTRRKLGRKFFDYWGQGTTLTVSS VL: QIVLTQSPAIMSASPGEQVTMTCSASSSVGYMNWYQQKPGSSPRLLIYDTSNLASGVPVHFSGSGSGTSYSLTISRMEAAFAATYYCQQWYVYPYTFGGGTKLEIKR .
Reply: 0.06

Query: What value of OD450 has been recorded for this entry: S009-F7.23.19 chimeric antibody (antibody, human IgG1, kappa, V domains shown, Human-murine chimeric antibody, human IgG1/kappa constant regions) VH: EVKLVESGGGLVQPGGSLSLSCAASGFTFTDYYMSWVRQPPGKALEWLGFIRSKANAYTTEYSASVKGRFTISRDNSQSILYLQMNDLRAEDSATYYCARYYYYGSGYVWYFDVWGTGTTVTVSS VL: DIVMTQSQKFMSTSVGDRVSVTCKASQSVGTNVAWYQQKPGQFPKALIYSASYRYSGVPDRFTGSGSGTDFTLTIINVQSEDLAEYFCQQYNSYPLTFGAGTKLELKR
Reply: 0.06

Continuing:
Query: What does the data say about its OD450? Entry: S009-F7.18.10 chimeric antibody (antibody, human IgG1, kappa, V domains shown, Human-murine chimeric antibody, human IgG1/kappa constant regions) VH: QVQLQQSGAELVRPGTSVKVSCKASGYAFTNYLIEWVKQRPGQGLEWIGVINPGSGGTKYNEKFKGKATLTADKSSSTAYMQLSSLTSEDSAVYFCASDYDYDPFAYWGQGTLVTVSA VL: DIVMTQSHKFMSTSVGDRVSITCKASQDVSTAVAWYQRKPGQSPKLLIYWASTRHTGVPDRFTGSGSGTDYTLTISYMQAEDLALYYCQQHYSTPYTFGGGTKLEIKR
Reply: 0.07
